experimentDescription: qHTS assay for measurement of the activity of small molecule inhibitors on Zika virus induced Caspase-3 activity in human iPSC derived neural progenitor cells (hNPCs) (AID 1224857); further: nearly all actives have a fitted effect of over 65% in size
conditionSet: hNPCs ZIKV-induced caspase-3/7, Caspase-Glo luminescence, 6 h; series mostly up to 45.7 µM
Procedure: National Center for Advancing Translational Sciences [NCATS] Johns Hopkins University School of Medicine […] The medium for hNPCs consists of DMEM/F12, N2 supplement (ThermoFisher, Cat.# 17502048), NEAA (ThermoFisher, Cat. # 11140050), 2 ug/ml heparin, 2 uM cyclopamine, and B27 (ThermoFisher, Cat. # 17504044). […] The luminescence intensity of the assay plates was measured using a ViewLux plate reader (PerkinElmer). […]
Inconclusive results are not listed. Calls of active or inactive are those of the source. The call rests on the fitted dose curve; in most records, active means well fitted inhibition curve with a large enough effect; inconclusive means small, poorly fitted or top-dose-only effect; inactive means no such curve, though single readings can be large or run the other way.
Log the outcome using a class from active, inactive

What call does the record list for O=C1NC(=O)C(c2ccccc2[N+](=O)[O-])=C1Nc1ccc(O)c(Cl)c1 ?
active

What call does the record list for O=C1c2c(O)cc(O)cc2OC(c2ccc(O)c(O)c2)C1O (stereo unspecified) ?
inactive

What call does the record list for CN1C(C(=O)Nc2ccccn2)=C(O)c2sccc2S1(=O)=O ?
inactive

What call does the record list for CNC[C@@H](O)[C@@H](O)[C@H](O)[C@H](O)CO ?
inactive

What call does the record list for O=c1cc(N2CCOCC2)oc2c(-c3ccccc3)cccc12 ?
inactive

What call does the record list for Cc1nccn1CC1CCc2c(c3ccccc3n2C)C1=O (stereo unspecified) ?
inactive

###

Test system: FAB9
experimentDescription: qHTS profiling for inhibitors of Plasmodium falciparum proliferation (AID 504749); further: nearly all actives have a fitted effect of over 60% in size
conditionSet: P. falciparum in erythrocytes, SYBR Green DNA, 72 h; series mostly up to 28.7 µM
Results filed as inconclusive are left out. The source made the active and inactive calls. The call rests on the fitted dose curve; in most records, active means well fitted inhibition curve with a large enough effect; inconclusive means small, poorly fitted or top-dose-only effect; inactive means flat fitted curve, though single readings scatter.
Log the outcome using a class from label 1 (active), label 0 (inactive)

What call does the record list for CCC(C)(Oc1ccc(C2(c3ccc(OC(C)(CC)C(=O)O)cc3)CCCCC2)cc1)C(=O)O (stereo not drawn) ?
label 0

What call does the record list for C=CCc1cc(OC)c(O)c(C(=O)NCCO)c1 ?
label 0

What call does the record list for Nc1cc(C(Cl)=C(Cl)Cl)c(S(N)(=O)=O)cc1S(N)(=O)=O ?
label 0

What call does the record list for Cc1nc(Nc2ncc(C(=O)Nc3c(C)cccc3Cl)s2)cc(N2CCN(CCO)CC2)n1 ?
label 0

What call does the record list for CC(S)C(=O)NCC(=O)O (stereo not drawn) ?
label 0

What call does the record list for Cc1cccc(C)c1OCC(=O)N[C@@H](Cc1ccccc1)[C@@H](O)C[C@H](Cc1ccccc1)NC(=O)[C@H](C(C)C)N1CCCNC1=O ?
label 1

What call does the record list for O=C(O)c1cccnc1Nc1cccc(C(F)(F)F)c1 ?
label 0

What call does the record list for Oc1ccc(OCc2ccccc2)cc1 ?
label 0

What call does the record list for O=C(CS(=O)Cc1ccco1)NCC=CCOc1cc(CN2CCCCC2)ccn1 (stereo not drawn) ?
label 0

What call does the record list for O=C1CCc2ccc(OCCCCN3CCN(c4cccc(Cl)c4Cl)CC3)cc2N1 ?
label 0

What call does the record list for CN(C)C(=O)COC(=O)Cc1ccc(OC(=O)c2ccc(N=C(N)N)cc2)cc1 ?
label 0

What call does the record list for CN(C)c1ccc2nc3ccc(=[N+](C)C)cc-3sc2c1 ?
label 1

What call does the record list for CC(C)c1ccc2oc3nc(N)c(C(=O)O)cc3c(=O)c2c1 ?
label 0

What call does the record list for O=C(NC(Cc1cc(=O)[nH]c2ccccc12)C(=O)O)c1ccc(Cl)cc1 (stereo not drawn) ?
label 0

What call does the record list for COc1ccc2cc([C@H](C)C(=O)O)ccc2c1 ?
label 0

What call does the record list for Cn1c(NCCN(CCO)CCCc2ccc([N+](=O)[O-])cc2)cc(=O)n(C)c1=O ?
label 0

What call does the record list for Cc1c(OCC(F)(F)F)ccnc1CS(=O)c1nc2ccccc2[nH]1 (stereo not drawn) ?
label 0

What call does the record list for CCC1=C(C)CN(C(=O)NCCc2ccc(S(=O)(=O)NC(=O)NC3CCC(C)CC3)cc2)C1=O (stereo not drawn) ?
label 0

What call does the record list for Nc1ccc(S(N)(=O)=O)cc1 ?
label 0

What call does the record list for CS(=O)(=O)OCCCCOS(C)(=O)=O ?
label 0

What call does the record list for CC(C)(S)[C@@H](N)C(=O)O ?
label 0

What call does the record list for CCCCN(CCCC)CCC(O)c1cc2c(Cl)cc(Cl)cc2c2cc(C(F)(F)F)ccc12 (stereo not drawn) ?
label 1

What call does the record list for Cc1ncc([N+](=O)[O-])n1CC(C)O (stereo not drawn) ?
label 0

###

experimentDescription: Drug repurposing screens with cells derived from glioblastoma tumor samples (AID 1345199); further: on the % scale 0 is the no-effect control and ±100 the full control effect; nearly all actives have a fitted effect of over 40% in size
conditionSet: GBM patient neurospheres viability, ATP luminescence, 48 h; at 21.3 µM (top of the series); tumour line A
Inconclusive results are not listed.
readoutName: activity, negative = cell killing (%)
Write the value in % as a bare number.

Query CCOc1cc(CC(=O)N[C@@H](CC(C)C)c2ccccc2N2CCCCC2)ccc1C(=O)O yields activity, negative = cell killing of -13.6

Query N=C(N=C(N)N)N1CCOCC1 yields activity, negative = cell killing of -14.6

Query O=C(c1ccccc1)c1ccc2n1CCC2C(=O)O (centres undefined) yields activity, negative = cell killing of -11

Query COc1cc(OC)c(C(=O)CCCN2CCCC2)c(OC)c1 yields activity, negative = cell killing of -24.2

###

experimentDescription: Identifying Small Molecule Inhibitors of Pancreatic Cancer Stem Cells (SN12C, Spheroid) (AID 1259360)
conditionSet: SN12C spheroid viability; series mostly up to 46.1 µM
Results filed as inconclusive are left out. The source made the active and inactive calls. The call rests on the fitted dose curve; in most records, active means well fitted cell-killing curve with a large enough effect; inconclusive means small, poorly fitted or top-dose-only effect, or effect the other way; inactive means flat fitted curve, though single readings scatter.
Log the outcome using a class from active, inactive

What call does the record list for Nc1cccc2c1CN(C1CCC(=O)NC1=O)C2=O (stereo not given) ?
inactive

What call does the record list for C[C@@H](N)C1CCC(C(=O)Nc2ccncc2)CC1 (stereo not given in full) ?
inactive

What call does the record list for Cc1ccc(Nc2nccc(N(C)c3ccc4c(C)n(C)nc4c3)n2)cc1S(N)(=O)=O ?
inactive

What call does the record list for CCOC(=O)C1=C(O)C(=O)N(Cc2ccccc2)C1 ?
inactive

What call does the record list for CC(C)C[C@H](NC(=O)[C@H](Cc1ccccc1)NC(=O)c1cnccn1)B(O)O ?
active

###

tgt: Furin (Homo sapiens)
experimentDescription: Furin counterscreen qHTS for Zika virus inhibitors (AID 1347149); further: nearly all actives have a fitted effect of over 70% in size
conditionSet: furin enzymatic counterscreen, fluorogenic substrate; series mostly up to 57.5 µM
Records with an inconclusive call do not appear. Active and inactive are the calls of the source. Calls come from the whole dose curve; as a rule, active = well fitted inhibition curve with a large enough effect; inconclusive = small, poorly fitted or top-dose-only effect; inactive = no such curve, though single readings can be large or run the other way.
Log the outcome using a class from active, inactive

What call does the record list for CN(C)c1ccc(O)c2c1C[C@H]1C[C@H]3[C@H](N(C)C)C(=O)C(C(N)=O)=C(O)[C@@]3(O)C(=O)C1=C2O ?
inactive

What call does the record list for CN(C)C(=O)[C@H](O)[C@H](Cc1ccccc1)NC(=O)c1cc2cc(Cl)ccc2[nH]1 ?
inactive

What call does the record list for CC(C)C[C@H](NC(=O)[C@H](Cc1ccccc1)NC(=O)c1cnccn1)B(O)O ?
inactive

What call does the record list for Cc1nc(Nc2ncc(C(=O)Nc3c(C)cccc3Cl)s2)cc(N2CCN(CCO)CC2)n1 ?
active

What call does the record list for COc1c2occc2cc2ccc(=O)oc12 ?
inactive

###

System: CP260
experimentDescription: qHTS profiling for inhibitors of Plasmodium falciparum proliferation (AID 504749); further: nearly all actives have a fitted effect of over 60% in size
conditionSet: P. falciparum in erythrocytes, SYBR Green DNA, 72 h; series mostly up to 28.7 µM
Records with an inconclusive call do not appear. The source made the active and inactive calls. Calls follow the shape of the dose curve; as a rule, active = well fitted inhibition curve with a large enough effect; inconclusive = small, poorly fitted or top-dose-only effect; inactive = flat fitted curve, though single readings scatter.
Log the outcome using a class from class 1 (active), class 0 (inactive)

What call does the record list for Nc1cc(C(Cl)=C(Cl)Cl)c(S(N)(=O)=O)cc1S(N)(=O)=O ?
class 0

What call does the record list for COc1cc2c(cc1OC)C1CC(=O)C(CC(C)C)CN1CC2 (stereo not given) ?
class 0

What call does the record list for Cc1ccc(C)c(OCCCC(C)(C)C(=O)O)c1 ?
class 0

What call does the record list for Cc1c(OCC(F)(F)F)ccnc1CS(=O)c1nc2ccccc2[nH]1 (stereo not given) ?
class 0

What call does the record list for COc1cc(OC)c(C(=O)CCCN2CCCC2)c(OC)c1 ?
class 0

What call does the record list for O=C1CCc2ccc(OCCCCN3CCN(c4cccc(Cl)c4Cl)CC3)cc2N1 ?
class 1

What call does the record list for CC1(C)NC(=O)N(c2ccc([N+](=O)[O-])c(C(F)(F)F)c2)C1=O ?
class 0

What call does the record list for CCc1nc(N)nc(N)c1-c1ccc(Cl)cc1 ?
class 0

What call does the record list for C[C@]12CCC(=O)C=C1CC[C@@H]1[C@H]2[C@@H](O)C[C@@]2(C)[C@H]1CC[C@]2(O)C(=O)CO ?
class 0

What call does the record list for CNC[C@H](O)c1ccc(O)c(O)c1 ?
class 0

What call does the record list for Nc1nc(Cl)nc2c1ncn2[C@H]1C[C@H](O)[C@@H](CO)O1 ?
class 0

What call does the record list for CC1(C)CCC(C)(C)c2cc(NC(=O)c3ccc(C(=O)O)cc3)ccc21 ?
class 0

What call does the record list for O=C(CS(=O)Cc1ccco1)NCC=CCOc1cc(CN2CCCCC2)ccn1 (stereo not given) ?
class 0

What call does the record list for N=C(N=C(N)N)N1CCOCC1 ?
class 0

What call does the record list for CCCCCCCCCCCCCCCCCCCCCCO ?
class 0

What call does the record list for Cc1cc2cc3c(C)cc(=O)oc3c(C)c2o1 ?
class 0

What call does the record list for CCC1=C(C)CN(C(=O)NCCc2ccc(S(=O)(=O)NC(=O)NC3CCC(C)CC3)cc2)C1=O (stereo not given) ?
class 0

What call does the record list for CCCOc1ccc2nc(NC(=O)OC)[nH]c2c1 ?
class 0

What call does the record list for O=C(O)c1cc(=O)c2c(OCC(O)COc3cccc4oc(C(=O)O)cc(=O)c34)cccc2o1 ?
class 0

What call does the record list for O=C1c2ccccc2-c2n[nH]c3cccc1c23 ?
class 0

What call does the record list for COc1ccc(C2(C#N)CCC(C(=O)O)CC2)cc1OC1CCCC1 (stereo not given) ?
class 0

What call does the record list for CCCCc1ccc2nc(NC(=O)OC)[nH]c2c1 ?
class 0

What call does the record list for CC[C@]1(O)C[C@H]2CN(CCc3c([nH]c4ccccc34)[C@@](C(=O)OC)(c3cc4c(cc3OC)N(C=O)[C@H]3[C@@](O)(C(=O)OC)[C@H](OC(C)=O)[C@]5(CC)C=CCN6CC[C@]43[C@@H]65)C2)C1 ?
class 1

What call does the record list for CCCc1cc(=O)[nH]c(=S)[nH]1 ?
class 0

What call does the record list for CC(C)(S)[C@@H](N)C(=O)O ?
class 0

What call does the record list for CCOc1cc(CC(=O)N[C@@H](CC(C)C)c2ccccc2N2CCCCC2)ccc1C(=O)O ?
class 0

What call does the record list for CS(=O)(=O)OCCCCOS(C)(=O)=O ?
class 0

What call does the record list for C=CCc1cc(OC)c(O)c(C(=O)NCCO)c1 ?
class 0

What call does the record list for O=C(O)c1cccnc1Nc1cccc(C(F)(F)F)c1 ?
class 0

What call does the record list for CCCCCCCCOc1ccccc1C(=O)Nc1ccc(C(=O)OCC[N+](C)(CC)CC)cc1 ?
class 1

What call does the record list for CN(C)c1ccc2nc3ccc(=[N+](C)C)cc-3sc2c1 ?
class 1

What call does the record list for Cc1cc2c(s1)Nc1ccccc1N=C2N1CCN(C)CC1 ?
class 0

What call does the record list for CC1=C(C)C(=O)C(C(CCCCCC(=O)O)c2ccccc2)=C(C)C1=O (stereo not given) ?
class 0

What call does the record list for O=C(NC(Cc1cc(=O)[nH]c2ccccc12)C(=O)O)c1ccc(Cl)cc1 (stereo not given) ?
class 0

What call does the record list for Cc1nc(Nc2ncc(C(=O)Nc3c(C)cccc3Cl)s2)cc(N2CCN(CCO)CC2)n1 ?
class 0
